Tested on: PC-3
assay.remarks: NCI tumour cell line growth inhibition, 48 h
Activity calls are given as the source filed them. Rule as the data show it: active = GI50 up to about 1.1 µM and inactive = higher.
Hi! Could you answer with just one of these? active, inactive

Tell me the recorded outcome of this test for "COc1ccc2c(c1)-c1nc(=S)n(CCN(C)C)c3ccc([N+](=O)[O-])c(c13)N2" .
active

Tell me the recorded outcome of this test for CC(=O)OCC(OC(C)=O)C(OC(C)=O)C(OC(C)=O)C(C=NN(C(C)=O)S(=O)(=O)c1ccc(/C=C2\NC(=O)N(C)C2=O)cc1)OC(C)=O (stereo not drawn) .
inactive

Tell me the recorded outcome of this test for "CCOc1ccncc1[N+](=O)[O-]" .
inactive

Tell me the recorded outcome of this test for "O=c1[nH]nc(Cc2ccccc2)n1/N=C/c1ccccc1Cl" .
inactive

Tell me the recorded outcome of this test for "CC(=O)O[C@H]1CC[C@@]2(C)[C@@H](CC[C@@H]3[C@@H]2CC(=O)[C@@]2(C)[C@H]3C[C@@H]3CC(C)=CC(=O)[C@@H]32)C1" .
inactive

---

Test system: MOLT-4
assay.remarks: NCI tumour cell line growth inhibition, 48 h
The source made the active and inactive calls. No stated cut-off is given here; in the data, active = GI50 up to about 1.1 µM and inactive = higher.
Hi! Could you answer with just one of these? t for active, f for inactive

Recorded results for 3 molecules are shown here.
{"molecule": "OC12c3ccccc3C1CCCCC2N1CCCC1 (configuration not stated)", "group": "f"}
{"molecule": "COc1cccc(-c2cc(C(=O)Nc3ccc(Cl)cc3)nc(N)n2)c1", "group": "f"}
{"molecule": "CNC(=O)c1ccccc1-[s+]1c2ccccc2c(=O)n1C (configuration not stated)", "group": "f"}

Tell me the recorded outcome of this test for CCCCOC(=O)NC(c1ccccc1)C(O)C(=O)OC1C[C@@]2(O)C(OC(=O)c3ccccc3)C3[C@](C)(C(=O)[C@H](OC(C)=O)C(=C1C)C2(C)C)[C@@H](O)C[C@H]1OC[C@@]31OC(C)=O (some centres not stated) .
t

---

Test system: SK-MEL-2
assay.remarks: NCI tumour cell line growth inhibition, 48 h
The source made the active and inactive calls. Rule as the data show it: active = GI50 up to about 1.1 µM and inactive = higher.
parameter: GI50

Some molecules with known GI50 results, for comparison:
{"molecule": "COC(=O)/C(=C\\c1ccc(N(CCC#N)CCC#N)cc1)NC(=O)c1cc([N+](=O)[O-])ccc1Cl", "measured.on": "SK-MEL-2", "GI50": "> 100 µM (inactive)"}
{"molecule": "O=C(CSc1nnc(-c2ccccn2)s1)N/N=C/c1ccc([N+](=O)[O-])cc1", "measured.on": "SK-MEL-2", "GI50": "77.1 µM (inactive)"}
{"molecule": "[N-]=[N+]=CC(=O)OC(CCl)CCl", "measured.on": "SK-MEL-2", "GI50": "> 100 µM (inactive)"}
{"molecule": "Brc1cccc(/C=N/C23CC4CC(CC(C4)C2)C3)c1", "measured.on": "SK-MEL-2", "GI50": "> 100 µM (inactive)"}

# evaluate next
The molecule "CC1=C(C#N)S(=O)(=O)c2c(oc(C)c2C)N1" showed GI50 equal to > 100 µM (inactive)

---

System: U-251
assay.remarks: NCI tumour cell line growth inhibition, 48 h
Active and inactive are the calls of the source. No stated cut-off is given here; in the data, active = GI50 up to about 1.1 µM and inactive = higher.
Hi! Could you answer with just one of these? yes (active), no (inactive)

Recorded results for 6 molecules are shown here.
{"molecule": "CCOC(=O)NC(Nc1c(F)c(F)c(F)c(F)c1F)(C(F)(F)F)C(F)(F)F", "group": "no"}
{"molecule": "COc1ccc(COC(=O)NNC(=O)C2CSC(c3ccccc3)N2C(C)=O)cc1 (centres undefined)", "group": "no"}
{"molecule": "COC1/C=C/OC2(C)Oc3c(C)c(O)c4c(c3C2=O)C(=O)C=C(NC(=O)/C(C)=C\\C=C\\C(C)C(OC=O)C(C)C(O)C(C)C(OC(C)=O)C1C)C4=O (centres undefined)", "group": "no"}
{"molecule": "Clc1ccc(-c2nn3c(COc4ccc(OCc5nnc6sc(-c7ccc(Cl)cc7)nn56)c(Cl)c4)nnc3s2)cc1", "group": "no"}
{"molecule": "Clc1ccc(-n2nnc(C3=NCCCN3)c2-c2ccccc2)cc1", "group": "no"}
{"molecule": "O=C1Nc2ccccc2N/C1=C\\C(=O)c1ccccc1O", "group": "no"}

Tell me the recorded outcome of this test for "COc1cc2c(cc1OC)CC(=O)Nc1cc(OC)c(OC)cc1CC2" .
no

Tell me the recorded outcome of this test for c1c2c(cc3c1OCO3)-c1cc3ccc4c(c3c[n+]1CC2)OCO4 [COPTISINE CHLORIDE] .
yes

Tell me the recorded outcome of this test for "O=C(O)CCc1ccc(-c2ccccc2)[nH]1" .
no

---

System: ACHN
assay.remarks: NCI tumour cell line growth inhibition, 48 h
The source made the active and inactive calls. No stated cut-off is given here; in the data, active = GI50 up to about 1.1 µM and inactive = higher.
Known GI50 of a selection of compounds

Some compounds with known GI50 results, for comparison:
{"compound": "COc1ccc(C2=Nc3ccccc3N=C(SC)C2)cc1", "GI50": "69.8 µM (inactive)"}
{"compound": "Nc1nc(Cl)c2ncn(Cc3ccccc3CCl)c2n1", "GI50": "5.69 µM (inactive)"}
{"compound": "Cc1cc2c(cc1C)[n+]([O-])c(C(=O)CC(=O)C(=O)Nc1c(C(C)C)cccc1C(C)C)c(C)[n+]2[O-]", "GI50": "> 100 µM (inactive)"}
{"compound": "CCNC(=O)C#CC(=O)NCC", "GI50": "> 100 µM (inactive)"}

Query CNC(C#N)c1ccc(OC)cc1 (stereo unspecified) on ACHN; GI50 returned: > 100 µM (inactive)

Query O=C1NC2(CCCCCC2)C2CCCCCCC12O (stereo unspecified) on ACHN; GI50 returned: > 100 µM (inactive)

Query "Cc1c(-c2ccccc2)c(-c2ccc(OCCN(C)C)cc2)n2ccccc12" on ACHN; GI50 returned: 13.9 µM (inactive)

Query "O=C(CCc1ccc(O)c(O)c1)NCCc1cc(O)cc(OCc2ccccc2)c1" on ACHN; GI50 returned: 8.75 µM (inactive)

Query C/C(=N\NC(N)=O)C(CN1CCCCC1)C(c1ccccc1)c1c(O)c2ccccc2oc1=O (stereo unspecified) on ACHN; GI50 returned: > 100 µM (inactive)

Query "COc1ccc2c(CCNS(=O)(=O)c3ccccc3)c(C(C)=O)[nH]c2c1[N+](=O)[O-]" on ACHN; GI50 returned: > 100 µM (inactive)

Query "Oc1cccc2c(Cl)ccnc12" on ACHN; GI50 returned: 1.99 µM (inactive)

---

Tested on: T47D
assay.remarks: NCI tumour cell line growth inhibition, 48 h
Calls of active or inactive are those of the source. Cut-off read from the data, not from the text of the source: active = GI50 up to about 1.1 µM and inactive = higher.
parameter: GI50

Some compounds with known GI50 results, for comparison:
{"compound": "CC(C)CC1c2[nH]c3ccccc3c2C[C@H]2C(=O)NC(Cc3c[nH]c4ccccc34)C(=O)N12 (some centres undefined)", "GI50": "6.61 µM (inactive)"}
{"compound": "CC(C)CN1CN(c2ccccc2)C2(CCN(CC(C)(c3ccc(F)cc3)C3OCCO3)CC2)C1=O (centres undefined)", "GI50": "2.75 µM (inactive)"}
{"compound": "COc1ccc2c(c1)-c1c(c3cc(OC)ccc3n1CCCN(C)C)CC2", "GI50": "5.36 µM (inactive)"}
{"compound": "O=c1c(C(c2ccc3ccccc3c2)c2c(O)oc3cc(O)ccc3c2=O)c(O)oc2cc(O)ccc12", "GI50": "> 100 µM (inactive)"}
{"compound": "O=C(O)COc1cc(-c2ccccc2)nc2cc(F)ccc12", "GI50": "> 100 µM (inactive)"}
{"compound": "CNc1nc2n(CCO)c(-c3ccccc3)c(-c3ccccc3)nc-2c(=O)n1", "GI50": "> 50 µM (inactive)"}

The compound "CCc1ccc(Nc2cc(=O)n(C)c(SCc3ccccc3)n2)cc1" showed GI50 equal to 95.3 µM (inactive)

The compound "CCOC(=O)c1sc2nc(SC)nc3c2c1NCN3C1CC1" showed GI50 equal to 48.6 µM (inactive)

The compound "CCOC(=O)/C=C(\N=P(c1ccccc1)(c1ccccc1)c1ccccc1)C(F)(F)C(F)(F)C(F)(F)C(F)(F)C(F)(F)F" showed GI50 equal to > 100 µM (inactive)

---

Tested on: MDA-MB-435
assay.remarks: NCI tumour cell line growth inhibition, 48 h
The source made the active and inactive calls. Cut-off read from the data, not from the text of the source: active = GI50 up to about 1.1 µM and inactive = higher.
Hi! Could you answer with just one of these? YES (active), NO (inactive)

Recorded results for 5 compounds are shown here.
{"compound": "O=C1CC(C(OCc2ccccc2)C(OCc2ccccc2)C(COCc2ccccc2)OCc2ccccc2)CC(=O)N1 (centres undefined)", "group": "NO"}
{"compound": "CC(=O)O[C@H]1CC[C@@]2(C)[C@@H](CC[C@@H]3[C@@H]2CC(=O)[C@@]2(C)[C@H]3C[C@@H]3CC(C)=CC(=O)[C@@H]32)C1", "group": "NO"}
{"compound": "COC(=O)CCc1ccc(CCC(=O)OC)cc1", "group": "NO"}
{"compound": "CCC/C(C)=N/NC(=S)SC.CCC/C(C)=N/NC(=S)SC.[Zn+2]", "group": "NO"}
{"compound": "CC(C)(C)OC(=O)NC(CSCc1ccc(C(=O)c2ccccc2)cc1)C(=O)O (centres undefined)", "group": "NO"}

Consider now this further compound.
Tell me the recorded outcome of this test for O=C(NCCC(F)(F)C(F)(F)C(F)(F)C(F)(F)F)NC1OC(CO)C(O)C(O)C1O (centres undefined) .
NO
